Assay: Physical characterisation of mRNA-containing LNPs (DLS, NTA, zeta potential)
Assay type: physicochemical
Details: Fluc mRNA LNPs: compound/DOPE/Cholesterol/DMG-PEG2000 41.44/45.85/10/2.7, lipid:RNA 40:1 (w/w)
READOUT LABEL: Total Particles/ml (Particles/ml)

Guide cases for Total Particles/ml, answers given:
>>> value("CC(C)C(CCC(C)C(CCC1CC2C(=O)N(c3ccc(N4C(=O)C5CC(CCC(SCCN(C)C)C(C)CCC(SCCN(C)C)C(C)C)C(SCCN(C)C)CC5C4=O)cc3)C(=O)C2CC1SCCN(C)C)SCCN(C)C)SCCN(C)C (stereo not shown)")
"5.10E+10"
>>> value("CC(C)C(CCC(C)C(CCC1CCC(C(=O)NCCCCCCNC(=O)C2CCC(CCC(SCCN(C)C)C(C)CCC(SCCN(C)C)C(C)C)C(SCCN(C)C)C2)CC1SCCN(C)C)SCCN(C)C)SCCN(C)C (stereo not shown)")
"1.66E+11"

I. CC(C)C(CCC(C)C(CCC1CCC(C(=O)NC2CCC(CC3CCC(NC(=O)C4CCC(CCC(SCCN(C)C)C(C)CCC(SCCN(C)C)C(C)C)C(SCCN(C)C)C4)CC3)CC2)CC1SCCN(C)C)SCCN(C)C)SCCN(C)C (stereo not shown)
II. CC(C)C(CCC1CCC(C(=O)NCCCCCCNC(=O)C2CCC(CCC(SCCN(C)C)C(C)C)C(SCCN(C)C)C2)CC1SCCN(C)C)SCCN(C)C (stereo not shown)
Field: lower Total Particles/ml | Options: I / II Answer by quoting the chosen item's label.
II
